- System: IL-10
- PROCEDURE DETAILS: Measurement of IL-10 increase rate (LPS-induced inflammation in mice, serum IL-10 by ELISA)
- Assay type: in vivo
- COND: Mus musculus, 2 h, oral 100 mg/kg in 0.5% methyl cellulose, LPS 0.4 mg/kg i.p. one hour later, serum taken one hour after LPS, % control ratio vs 0.5% methyl cellulose group, read-out: IL10 Increase Rate (%)
Decision: response vs control in vivo at 100 mg/kg compared against 200%; not below it gives 1.0, below it gives 0.0.

>  <COMPOUND>
Cn1c(COc2cccc(C(F)(F)F)c2)nnc1[C@H]1CC[C@H](c2cn([C@@H]3CC[C@@H](CN4CCC4)OC3)nn2)CC1 [Example 19]

>  <QUALITATIVE LABEL>
1.0

$$$$
>  <COMPOUND>
Cn1c(COc2cc(C(F)(F)F)ccn2)nnc1[C@H]1CC[C@H](c2cnn([C@H]3CC[C@H](N4CC5(CCOC5)C4)CC3)c2)CC1 [Example 27]

>  <QUALITATIVE LABEL>
1.0

$$$$
>  <COMPOUND>
CC(C)c1cccc(CC2OCCn3c2nnc3[C@H]2CC[C@H](n3cc(C4(F)CCN(C)CC4)nn3)CC2)c1 (some centres unmarked) [Example 14]

>  <QUALITATIVE LABEL>
1.0

$$$$
>  <COMPOUND>
Cn1c(COc2cc(C(F)(F)F)ccn2)nnc1[C@H]1CC[C@H](c2cnn([C@H]3CC[C@H](N4CCC5(COC5)C4)CC3)c2)CC1 [Example 26]

>  <QUALITATIVE LABEL>
1.0

$$$$
>  <COMPOUND>
Cn1c(COc2cc(C(F)(F)F)ccn2)nnc1[C@H]1CC[C@H](c2cn([C@H]3CC[C@H](N4CC(CF)C4)CC3)nn2)CC1 [Example 20]

>  <QUALITATIVE LABEL>
0.0

$$$$
>  <COMPOUND>
CN1CCC(F)(c2cn([C@H]3CC[C@H](c4nnc5n4CCCC5Oc4cccc(C(F)(F)F)c4)CC3)nn2)CC1 (some centres unmarked) [Example 15]

>  <QUALITATIVE LABEL>
1.0

$$$$
>  <COMPOUND>
CN1CCC(c2cn(-c3ccc(-c4nnc(COc5cccc(C(F)(F)F)c5)n4C)cc3)nn2)CC1 [Example 1]

>  <QUALITATIVE LABEL>
0.0

$$$$
>  <COMPOUND>
CC(C)c1cccc(O[C@H](C)c2nnc([C@H]3CC[C@H](n4cc(C5(F)CCN(C)CC5)nn4)CC3)n2C)c1 [Example 4]

>  <QUALITATIVE LABEL>
0.0

$$$$
>  <COMPOUND>
COC(=O)c1cccc(OCc2nnc([C@H]3CC[C@H](c4cnn([C@H]5CC[C@H](N6CCC6)CC5)c4)CC3)n2C)c1 [Example 30]

>  <QUALITATIVE LABEL>
0.0

$$$$
>  <COMPOUND>
Cn1c(COc2cc(C(F)(F)F)ccn2)nnc1[C@H]1CC[C@H](c2cnn([C@H]3CC[C@H](N4CCOCC4)CC3)c2)CC1 [Example 23]

>  <QUALITATIVE LABEL>
1.0

$$$$
>  <COMPOUND>
Cn1c(COc2cccc(C(F)(F)F)c2)nnc1[C@H]1CC[C@H](n2cc(C34CCC(CN5CCC5)(CC3)CC4)nn2)CC1 [Example 10]

>  <QUALITATIVE LABEL>
1.0

$$$$
>  <COMPOUND>
CN(C)C12CCC(c3cn([C@H]4CC[C@H](c5nnc(COc6cccc(C(F)(F)F)c6)n5C)CC4)nn3)(CC1)CC2 [Example 11]

>  <QUALITATIVE LABEL>
0.0

$$$$
>  <COMPOUND>
Cn1c(COc2cc(C(F)(F)F)ccn2)nnc1[C@H]1CC[C@H](c2cnn([C@H]3CC[C@H](N4CC(CO)(CO)C4)CC3)c2)CC1 [Example 29]

>  <QUALITATIVE LABEL>
0.0

$$$$
>  <COMPOUND>
Cn1c(COc2cccc(C(F)(F)F)c2)nnc1[C@H]1CC[C@H](c2cnn([C@@H]3CC[C@@H](CN4CCC4)OC3)c2)CC1 [Example 22]

>  <QUALITATIVE LABEL>
0.0

$$$$
>  <COMPOUND>
Cn1c(COc2cc(C(F)(F)F)ccn2)nnc1[C@H]1CC[C@H](c2cnn([C@H]3CC[C@H](N4CC5(COC5)C4)CC3)c2)CC1 [Example 24]

>  <QUALITATIVE LABEL>
1.0

$$$$
>  <COMPOUND>
CC(C)c1cccc(O[C@@H](C)c2nnc(C34CCC(n5cc(-c6ccc([C@@H](C)N7CCC7)cc6)nn5)(CC3)CC4)n2C)c1 [Example 7]

>  <QUALITATIVE LABEL>
0.0

$$$$
>  <COMPOUND>
CC(C)c1cccc(OCc2nnc([C@H]3CC[C@H](n4cc(C5(F)CCN(C)CC5)nn4)CC3)n2C)c1 [Example 3]

>  <QUALITATIVE LABEL>
0.0

$$$$
>  <COMPOUND>
CC(C)c1cccc(O[C@H](C)c2nnc([C@H]3CC[C@H](C4=NOC5(CCN(C)CC5)C4)CC3)n2C)c1 [Example 36]

>  <QUALITATIVE LABEL>
1.0

$$$$
>  <COMPOUND>
COC(=O)c1cccc(OCc2nnc([C@H]3CC[C@H](c4cnn([C@H]5CC[C@H](N6CC7(COC7)C6)CC5)c4)CC3)n2C)c1 [Example 31]

>  <QUALITATIVE LABEL>
1.0

$$$$
>  <COMPOUND>
CN1CCC(c2cnn(-c3ccc(-c4nnc(COc5cccc(C(F)(F)F)c5)n4C)cc3)c2)CC1 [Example 16]

>  <QUALITATIVE LABEL>
0.0

$$$$
>  <COMPOUND>
Cn1c(COc2cc(C(F)(F)F)ccn2)nnc1[C@H]1CC[C@H](c2cnn([C@H]3C[C@H](O)[C@@H](N4CCC4)C3)c2)CC1 (racemic) [Example 28]

>  <QUALITATIVE LABEL>
0.0

$$$$
>  <COMPOUND>
Cn1c(COc2cccc(Cl)c2)nnc1[C@H]1CC[C@H](c2cc([C@@H]3CC[C@@H](N4CCC4)CO3)on2)CC1 [Example 35]

>  <QUALITATIVE LABEL>
0.0

$$$$
